# TARGET ENTITY: human α1A‐adrenoceptor (Homo sapiens, UniProt P35348)
# Construct: expressed in transfected cells; host or cells: CHO-K1
# Sequence (P35348 whole entry): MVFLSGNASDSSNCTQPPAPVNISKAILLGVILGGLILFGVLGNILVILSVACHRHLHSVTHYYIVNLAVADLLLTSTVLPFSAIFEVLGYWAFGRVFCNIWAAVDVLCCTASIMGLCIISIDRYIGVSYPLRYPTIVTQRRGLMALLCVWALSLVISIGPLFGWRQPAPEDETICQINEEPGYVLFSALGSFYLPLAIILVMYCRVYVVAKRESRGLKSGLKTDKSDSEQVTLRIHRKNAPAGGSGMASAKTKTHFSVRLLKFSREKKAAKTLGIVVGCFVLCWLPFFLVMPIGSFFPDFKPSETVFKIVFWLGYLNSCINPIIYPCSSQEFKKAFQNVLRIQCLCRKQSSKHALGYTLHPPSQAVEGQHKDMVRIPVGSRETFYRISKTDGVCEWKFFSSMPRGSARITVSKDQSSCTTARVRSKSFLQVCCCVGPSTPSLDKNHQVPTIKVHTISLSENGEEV
# PROCEDURE TEXT: ^3H‐prazosin whole‐cell radioligand binding, CHO‐α1A cells

COMPOUND	Kd [nM]
Cc1cc(C(C)(C)C)cc(C)c1CC1=NCCN1	115
Cc1cccc(C)c1N=C1NCCCS1	33100
CNCC(O)c1ccc(O)cc1 (stereo not shown) [Synephrine]	55000
C=CCc1ccccc1OC(C)C1=NCCN1 (stereo not shown)	162
CN[C@@H](C)[C@H](O)c1ccccc1	85100
CN1C[C@H](C(=O)N[C@]2(C)O[C@@]3(O)[C@@H]4CCCN4C(=O)[C@H](Cc4ccccc4)N3C2=O)C[C@@H]2c3cccc4[nH]cc(c34)C[C@H]21 [Dihydroergotamine]	2.4
OCc1cc(C(O)CNCCCCCCOCCCCc2ccccc2)ccc1O (stereo not shown)	776

* * *

Reported values of pIC50 for individual entries
# TARGET ENTITY: human α1B‐adrenoceptor (Homo sapiens)
# Construct: expressed in transfected cells; host or cells: CHO-K1
# PROCEDURE TEXT: ^3H‐prazosin whole‐cell radioligand binding, CHO‐α1B cells
# RUN CONDITIONS: CHO‐α1B cells; printed as IC50> log value
pIC50: −log10 of the molar value.

COMPOUND	pIC50
CCNCC(O)c1cccc(O)c1 (stereo not drawn)	< 3.00
COc1ccc(OC)c(C(O)C(C)N)c1 (stereo not drawn)	< 3.00
CC(C)(C)NCC(O)c1ccc(O)c(CO)c1 (stereo not drawn)	< 3.00
C[C@H](N)[C@H](O)c1cccc(O)c1	< 3.00
NCC(O)c1ccc(O)cc1 (stereo not drawn)	< 3.00
C1COC(NC(C2CC2)C2CC2)=N1	< 4.00

* * *

# TARGET ENTITY: human α1A‐adrenoceptor (Homo sapiens)
# Construct: expressed in transfected cells; host or cells: CHO-K1
# PROCEDURE TEXT: ^3H‐prazosin whole‐cell radioligand binding, CHO‐α1A cells
# RUN CONDITIONS: CHO‐α1A cells; given as log KD (negative); mean ± SEM

MOLECULE	Kd / µM
N=C(N)NC(=O)Cc1c(Cl)cccc1Cl [Guanfacine]	4.68
COc1nc(C)nc(Cl)c1N=C1NCCN1 [Moxonidine]	28.8
c1ccc(C2CC2)c(OCC2=NCCN2)c1 [Cirazoline]	0.676
CC(CCc1ccc(O)cc1)NCCc1ccc(O)c(O)c1 (centres unmarked) [Dobutamine]	0.457
C[C@H](N)[C@H](O)c1cccc(O)c1 [Metaraminol]	85.1

* * *

# TARGET ENTITY: human α1D‐adrenoceptor (full length) (Homo sapiens)
# Construct: human α1D‐adrenoceptor (full length) were used; expressed in transfected cells; host or cells: CHO-K1
# PROCEDURE TEXT: ERK1/2‐phosphorylation (Surefire Alphascreen), CHO‐α1D cells
# Format: cell-based

COMPOUND	ERK1/2‐phosphorylation Log EC50
C=CCN1CCc2nc(N)sc2CC1	No response
Cc1ccc(/N=C/N(C)/C=N/c2ccc(C)cc2C)c(C)c1	No response
Cc1cccc(C)c1N=C1NCCCS1	No response
CC(N)C(O)c1ccc(O)c(O)c1 (stereo not drawn) [α‐Methylnorepinephrine]	−5.74 ± 0.11

* * *

# TARGET ENTITY: human α1D‐adrenoceptor (full length) (Homo sapiens, UniProt P25100)
# Construct: human α1D‐adrenoceptor (full length) were used; expressed in transfected cells; host or cells: CHO-K1
# Sequence (P25100 whole entry): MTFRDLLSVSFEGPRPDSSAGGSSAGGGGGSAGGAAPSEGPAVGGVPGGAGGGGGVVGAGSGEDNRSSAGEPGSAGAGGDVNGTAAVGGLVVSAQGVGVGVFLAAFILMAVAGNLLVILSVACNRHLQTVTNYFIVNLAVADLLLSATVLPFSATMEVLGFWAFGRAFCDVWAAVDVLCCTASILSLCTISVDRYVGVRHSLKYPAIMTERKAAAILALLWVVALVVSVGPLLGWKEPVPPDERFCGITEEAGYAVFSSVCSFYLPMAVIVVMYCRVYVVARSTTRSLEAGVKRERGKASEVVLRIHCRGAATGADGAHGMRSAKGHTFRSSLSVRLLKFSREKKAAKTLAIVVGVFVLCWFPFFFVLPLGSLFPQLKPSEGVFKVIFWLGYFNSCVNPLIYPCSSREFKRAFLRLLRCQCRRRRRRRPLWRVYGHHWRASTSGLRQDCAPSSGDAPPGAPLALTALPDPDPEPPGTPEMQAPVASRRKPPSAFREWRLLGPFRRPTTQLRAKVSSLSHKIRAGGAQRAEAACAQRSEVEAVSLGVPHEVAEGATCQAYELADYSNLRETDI
# PROCEDURE TEXT: ^3H‐prazosin whole‐cell radioligand binding, CHO‐α1D cells
# RUN CONDITIONS: 3H‐prazosin binding Log KD, CHO‐α1D cells, whole‐cell binding (from Table 1); log values given negative
List of Kd values.
RECORDED METRIC: Kd (µM)

MOLECULE	REPORTED RESULT
CC(CCc1ccc(O)cc1)NCCc1ccc(O)c(O)c1 (stereo not shown)	4.37
Cc1cccc(Cc2c[nH]cn2)c1C	0.977
Brc1c(NC2=NCCN2)ccc2nccnc12 [Brimonidine]	5.37
COc1nc(C)nc(Cl)c1N=C1NCCN1	110
COc1ccc(OC)c(C(O)C(C)N)c1 (stereo not shown)	151
c1ccc2c(c1)CCCC2C1=NCCN1 (stereo not shown) [Tetrahydrozoline]	4.57
CCNCC(O)c1cccc(O)c1 (stereo not shown)	35.5
Clc1cccc(Cl)c1N=C1NCCN1	2.57
C[C@H](N)[C@H](O)c1cccc(O)c1	56.2
OCc1cc(C(O)CNCCCCCCOCCCCc2ccccc2)ccc1O (stereo not shown)	1.7
CC(C)(C)NCC(O)c1ccc(O)c(CO)c1 (stereo not shown)	135
C1COC(NC(C2CC2)C2CC2)=N1	18.6
Clc1ccc2nsnc2c1NC1=NCCN1	3.89
Brc1c(NC2=NCCN2)ccc2nccnc12 [UK14304]	4.37
N=C(N)N/N=C/c1c(Cl)cccc1Cl	0.955
c1ccc2c(CC3=NCCN3)cccc2c1	2.04

* * *

# TARGET ENTITY: human α1A‐adrenoceptor (Homo sapiens)
# Construct: expressed in transfected cells; host or cells: CHO-K1
# PROCEDURE TEXT: ERK1/2‐phosphorylation (Surefire Alphascreen), CHO‐α1A cells
# Format: cell-based
# RUN CONDITIONS: CHO‐α1A cells; 2–4 min; ^a bi‐phasic: initial stimulatory part; ^b also active in parent CHO cells; read-out: ERK1/2‐phosphorylation Log EC50 (converted)
Assign labels as follows, please: y for EC50 below 100 nM; n for EC50 equal to or exceeding 100 nM.

COMPOUND	CAT
COc1ccc(OC)c(C(O)C(C)N)c1 (centres unmarked)	y
N=C(N)NC(=O)Cc1c(Cl)cccc1Cl	y
COc1nc(C)nc(Cl)c1N=C1NCCN1	n
CCNCC(O)c1cccc(O)c1 (centres unmarked)	n
Brc1c(NC2=NCCN2)ccc2nccnc12 [Brimonidine]	n
N=C(N)N/N=C/c1c(Cl)cccc1Cl	n
Brc1c(NC2=NCCN2)ccc2nccnc12 [UK14304]	n
CC(CCc1ccc(O)cc1)NCCc1ccc(O)c(O)c1 (centres unmarked)	y
NCC(O)c1ccc(O)cc1 (centres unmarked)	n
Clc1ccc2nsnc2c1NC1=NCCN1	y
c1ccc(C2CC2)c(OCC2=NCCN2)c1	y
c1ccc2c(CC3=NCCN3)cccc2c1	y

* * *

# TARGET ENTITY: human α1B‐adrenoceptor (Homo sapiens, UniProt P35368)
# Construct: expressed in transfected cells; host or cells: CHO-K1
# Sequence (P35368 1-520): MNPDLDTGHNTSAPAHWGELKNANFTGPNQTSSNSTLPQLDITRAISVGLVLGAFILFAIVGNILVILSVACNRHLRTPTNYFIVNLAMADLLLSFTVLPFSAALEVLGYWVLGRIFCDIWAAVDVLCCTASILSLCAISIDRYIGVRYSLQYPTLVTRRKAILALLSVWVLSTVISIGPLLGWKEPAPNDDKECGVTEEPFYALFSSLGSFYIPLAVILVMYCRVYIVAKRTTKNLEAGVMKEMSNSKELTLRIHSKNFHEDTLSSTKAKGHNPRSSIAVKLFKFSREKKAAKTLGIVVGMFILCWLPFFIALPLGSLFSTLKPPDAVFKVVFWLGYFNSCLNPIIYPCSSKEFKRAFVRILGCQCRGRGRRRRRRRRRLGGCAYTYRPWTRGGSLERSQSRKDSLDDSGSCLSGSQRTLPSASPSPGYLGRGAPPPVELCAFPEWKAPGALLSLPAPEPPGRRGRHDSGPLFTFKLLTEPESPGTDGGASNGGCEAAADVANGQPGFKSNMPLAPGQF
# PROCEDURE TEXT: Intracellular free calcium mobilization, CHO‐α1B cells
# Format: cell-based
# RUN CONDITIONS: CHO‐α1B cells; given as log EC50 (negative numbers); read-out: Intracellular calcium release Log EC50 (converted)

COMPOUND	EC50 (nM)
CCNCC(O)c1cccc(O)c1 (stereo not drawn)	13.8
C[C@H](N)[C@H](O)c1cccc(O)c1	112
COc1nc(C)nc(Cl)c1N=C1NCCN1	324
NCC(O)c1ccc(O)cc1 (stereo not drawn)	1230
N=C(N)NC(=O)Cc1c(Cl)cccc1Cl	26.9
c1ccc(C2CC2)c(OCC2=NCCN2)c1	8.91
Clc1ccc2nsnc2c1NC1=NCCN1	89.1
Brc1c(NC2=NCCN2)ccc2nccnc12 [UK14304]	70.8
CC(C)(C)NCC(O)c1ccc(O)c(CO)c1 (stereo not drawn)	7240
COc1ccc(OC)c(C(O)C(C)N)c1 (stereo not drawn)	229
Brc1c(NC2=NCCN2)ccc2nccnc12 [Brimonidine]	97.7
c1ccc2c(CC3=NCCN3)cccc2c1	9.33

* * *

# TARGET ENTITY: human α1D‐adrenoceptor (full length) (Homo sapiens)
# Construct: human α1D‐adrenoceptor (full length) were used; expressed in transfected cells; host or cells: CHO-K1
# PROCEDURE TEXT: Intracellular free calcium mobilization, CHO‐α1D cells
# Format: cell-based
# RUN CONDITIONS: CHO‐α1D cells; log values given negative; read-out: Intracellular calcium release Log EC50 (converted)

COMPOUND	READOUT UNIT	EC50
COc1nc(C)nc(Cl)c1N=C1NCCN1 [Moxonidine]	nM	6170
CC(CCc1ccc(O)cc1)NCCc1ccc(O)c(O)c1 (stereo not shown) [Dobutamine]	nM	24
NCC(O)c1ccc(O)cc1 (stereo not shown) [Octopamine]	nM	6310
CNC[C@H](O)c1ccc(O)c(O)c1 [Adrenaline]	nM	18.2
COc1ccc(OC)c(C(O)C(C)N)c1 (stereo not shown) [Methoxamine]	nM	4170
CNC[C@H](O)c1cccc(O)c1 [R‐phenylephrine]	nM	63.1
c1ccc2c(CC3=NCCN3)cccc2c1 [Naphazoline]	nM	117
C[C@H](N)[C@H](O)c1cccc(O)c1 [Metaraminol]	nM	759
N=C(N)NC(=O)Cc1c(Cl)cccc1Cl [Guanfacine]	nM	3470
CCNCC(O)c1cccc(O)c1 (stereo not shown) [Etilefrine]	nM	1350
